Entry source: ChEMBL document CHEMBL4339213

# PROTOCOL TEXT: Half life in human plasma
# Type: ADME, cell-free
MEASURED METRIC: half-life

Exam item: Find the measured half-life of `COc1ccc2c(c1)c(CC(=O)OCCC(=O)NCc1ccccc1)c(C)n2C(=O)c1ccc(Cl)cc1` and report it.
Marked response: > 3.6 h
